pIC50 overview
testedOn: HDAC6 (Homo sapiens, UniProt Q9UBN7)
Sequence (Q9UBN7 whole entry): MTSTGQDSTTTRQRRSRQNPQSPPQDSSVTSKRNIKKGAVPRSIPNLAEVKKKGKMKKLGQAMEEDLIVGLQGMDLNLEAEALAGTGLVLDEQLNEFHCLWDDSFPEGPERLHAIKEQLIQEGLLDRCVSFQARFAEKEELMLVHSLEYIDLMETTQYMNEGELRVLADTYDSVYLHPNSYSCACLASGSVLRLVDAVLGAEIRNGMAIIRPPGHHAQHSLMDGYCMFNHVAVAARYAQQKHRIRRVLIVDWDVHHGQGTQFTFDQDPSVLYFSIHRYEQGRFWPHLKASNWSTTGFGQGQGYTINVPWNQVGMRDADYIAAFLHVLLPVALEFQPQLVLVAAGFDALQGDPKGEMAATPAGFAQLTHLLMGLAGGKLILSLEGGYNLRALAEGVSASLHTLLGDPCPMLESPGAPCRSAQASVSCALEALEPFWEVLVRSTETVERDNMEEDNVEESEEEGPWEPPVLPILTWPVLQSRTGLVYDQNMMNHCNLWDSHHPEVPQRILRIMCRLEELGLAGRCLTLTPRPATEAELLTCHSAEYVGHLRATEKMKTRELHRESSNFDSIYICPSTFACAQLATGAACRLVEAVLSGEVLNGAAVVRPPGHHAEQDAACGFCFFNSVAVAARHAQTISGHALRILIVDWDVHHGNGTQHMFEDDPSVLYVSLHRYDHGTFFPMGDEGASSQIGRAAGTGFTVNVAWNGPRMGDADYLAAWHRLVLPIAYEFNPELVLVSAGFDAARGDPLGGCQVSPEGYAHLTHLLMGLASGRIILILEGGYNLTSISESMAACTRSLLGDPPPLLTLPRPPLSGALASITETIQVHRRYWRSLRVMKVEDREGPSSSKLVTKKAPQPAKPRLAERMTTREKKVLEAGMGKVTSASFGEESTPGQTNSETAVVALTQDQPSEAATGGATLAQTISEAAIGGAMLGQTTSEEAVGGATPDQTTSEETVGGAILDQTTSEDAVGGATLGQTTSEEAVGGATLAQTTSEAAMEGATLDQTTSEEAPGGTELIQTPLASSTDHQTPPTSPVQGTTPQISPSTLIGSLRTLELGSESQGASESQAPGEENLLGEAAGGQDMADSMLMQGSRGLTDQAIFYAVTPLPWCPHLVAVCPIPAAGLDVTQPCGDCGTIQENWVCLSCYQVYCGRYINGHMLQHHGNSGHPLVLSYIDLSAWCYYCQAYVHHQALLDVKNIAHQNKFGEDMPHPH
assayOverview: In vitro histone deacetylase assay: enzymatic HDAC6 electrophoretic mobility shift assay
conditionSet: full length human recombinant HDAC6, 1 nM enzyme, 2 μM peptide substrate RHKK(Ac)-NH2, 25° C.; read-out: Inhibitory Concentration (IC50) Values for Representative Compounds against HDAC6, Activity Range
pIC50: −log10 of the molar value.

Reference set, count: 5
COc1ccc(CN2Cc3ccc(C(=O)NO)cc3OCC23CC3)cc1 | ≥ 7.00
C[C@H]1COc2cc(C(=O)NO)ccc2CN1c1ccc(Cl)cc1 | ≥ 7.00
COC1CN(C(=O)N2Cc3ccc(C(=O)NO)cc3OC[C@@H]2C)C1 | ≥ 7.00
COc1ccc(CN2CCNc3ccc(C(=O)NO)cc3C2)cc1 | < 6.30
COc1ccc(CN2CCOc3ccc(C(=O)NO)cc3C2)cc1 | < 6.30

Could you share what pIC50 was measured for COc1ccc(CN2Cc3ccc(C(=O)NO)cc3OCC2(C)C)cc1 , tested on HDAC6 (Homo sapiens, UniProt Q9UBN7)?
6.30 to 7.00

Let us now turn to COc1ccc(NC(=O)N2Cc3ccc(C(=O)NO)cc3O[C@H](C)C2)cc1
6.30 to 7.00
